# Test system: FAB9
# test-summary: qHTS profiling for inhibitors of Plasmodium falciparum proliferation (AID 504749); also: nearly all actives have a fitted effect of over 60% in size
# condition-label: P. falciparum in erythrocytes, SYBR Green DNA, 72 h; series mostly up to 28.7 µM
Inconclusive results are not listed. Calls of active or inactive are those of the source. Calls follow the shape of the dose curve; as a rule, active = well fitted inhibition curve with a large enough effect; inconclusive = small, poorly fitted or top-dose-only effect; inactive = flat fitted curve, though single readings scatter.

- compound: "Cn1c(=O)c2c(ncn2CCOC(=O)C(C)(C)Oc2ccc(Cl)cc2)n(C)c1=O"
  outcome: "inactive"
- compound: "CCOC(=O)[C@@H](N)CS"
  outcome: "inactive"
- compound: "CC(C)c1ncc([N+](=O)[O-])n1C"
  outcome: "inactive"
- compound: "CC(C)(COP(=O)(O)OP(=O)(O)OC[C@H]1O[C@@H](n2cnc3c(N)ncnc32)[C@H](O)[C@@H]1OP(=O)(O)O)C(O)C(=O)NCCC(=O)NCCS (stereo not given in full)"
  outcome: "inactive"
- compound: "COC(=O)C(CN)c1c[nH]c2ccc(OC)cc12 (stereo not given)"
  outcome: "inactive"
